System: CHEAL (Chenopodium album)
Assay: Postemergence herbicidal evaluation
Format: in vivo, L.
Conditions: postemergence, rate 0.0620 kg/ha

| compound | CHEAL herbicidal rating |
| --- | --- |
| Cn1c(C(F)(F)F)cc(=O)n(-c2ccc3snc(C4OCCCS4)c3c2)c1=O (stereo not shown) | 9.0 |
| Cn1c(C(F)(F)F)cc(=O)n(-c2ccc3snc(-c4ccco4)c3c2)c1=O | 5.0 |
| C=C1COC(c2nsc3ccc(-n4c(=O)cc(C(F)(F)F)n(C)c4=O)cc23)OC1 | 5.0 |
| Cc1cnn(-c2nsc3ccc(-n4c(=O)cc(C(F)(F)F)n(C)c4=O)cc23)c1 | 9.0 |
| Cn1c(C(F)(F)F)cc(=O)n(-c2ccc3snc(C4OCC(CS(C)(=O)=O)O4)c3c2)c1=O (single isomer, unassigned) [Compound 86] | 9.0 |
| Cc1nn(-c2nsc3ccc(-n4c(=O)cc(C(F)(F)F)n(C)c4=O)cc23)c(C)c1C | 0.0 |
| Cn1c(C(F)(F)F)cc(=O)n(-c2ccc3snc(C4OC(C)(C)C(C)(C)O4)c3c2)c1=O | 9.0 |
